target.or.system: Cytochrome P450 2B1 (Rattus norvegicus, UniProt P00176)
Sequence (P00176 whole entry): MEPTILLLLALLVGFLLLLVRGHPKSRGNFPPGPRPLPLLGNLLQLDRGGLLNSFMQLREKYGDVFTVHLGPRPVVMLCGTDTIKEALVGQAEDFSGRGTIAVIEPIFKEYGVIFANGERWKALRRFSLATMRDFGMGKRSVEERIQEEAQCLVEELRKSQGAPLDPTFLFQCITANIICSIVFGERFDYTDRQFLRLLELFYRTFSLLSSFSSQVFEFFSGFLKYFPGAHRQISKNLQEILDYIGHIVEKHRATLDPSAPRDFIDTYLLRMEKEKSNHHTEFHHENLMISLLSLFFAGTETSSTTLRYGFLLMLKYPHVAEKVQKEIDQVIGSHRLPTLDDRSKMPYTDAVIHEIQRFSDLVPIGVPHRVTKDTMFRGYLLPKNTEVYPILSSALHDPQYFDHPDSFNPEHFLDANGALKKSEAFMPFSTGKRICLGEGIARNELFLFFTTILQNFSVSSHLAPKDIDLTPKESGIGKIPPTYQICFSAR
assay.explanation: Inhibitory potency to aminopyrine N-demethylase activity (P450) in hepatic microsomes from phenobarbitone-induced rats.
Format: ADME, Liver
experimental.context: read-out: pI50 (converted)
property: IC50 (µM)
Numbers only, in µM.

>>> reported_result("c1ccc2cc(Cc3nc4ccccc4[nH]3)ccc2c1")
18.2
>>> reported_result("CCCCCCCc1nc2cc(C)c(C)cc2[nH]1")
44.7
>>> reported_result("CCCCCCCc1nc2cc(C)ccc2[nH]1")
41.7
>>> reported_result("Brc1cccc(Br)c1OCc1nc2ccccc2[nH]1")
11

Provide IC50 for all items below, preserving their order.
1. Cc1cc(OCc2nc3ccccc3[nH]2)cc(C)c1Cl
2. Clc1cc(Cl)c2[nH]cnc2c1
3. CCCCCCc1nc2ccccc2[nH]1
4. Brc1ccc(OCc2nc3ccccc3[nH]2)c(Br)c1
5. Cc1nc2cc(Cl)c(Cl)cc2[nH]1
6. Cc1cc(C)cc(OCc2nc3ccccc3[nH]2)c1

1: 30.2; 2: 53.7; 3: 32.4; 4: 11; 5: 81.3; 6: 25.7

Field: IC50. Fill in for each record below.
1. c1ccc2c3c(ccc2c1)=NCN=3
2. c1ccc(Cc2nc3ccccc3[nH]2)cc1
3. c1ccc(CCCCc2nc3ccccc3[nH]2)cc1

53.7
91.2
15.1

meta.source: ChEMBL document CHEMBL1122169
